Task for the reader: assign each of the following compounds its reported log10 IC50.
Log scale reminder: IC50 in µM, then log10 taken.

Prompt: Lookup: log10 IC50 / SARS-CoV-2 M^Pro (Severe acute respiratory syndrome coronavirus 2, UniProt P0DTD1) / O=C1CCN(Cc2ccsc2)C(=O)N1Cc1ccc[nH]c1=O
Response: 1.36

Prompt: Return log10 IC50 measured with SARS-CoV-2 M^Pro (Severe acute respiratory syndrome coronavirus 2, UniProt P0DTD1) given this compound: C#CCn1c(-c2cccc(Cl)c2)c(-n2nnc3ccccc32)c(=O)n(-c2cncc3ccccc23)c1=O
Response: -1.43

Prompt: Give recorded log10 IC50 with SARS-CoV-2 M^Pro (Severe acute respiratory syndrome coronavirus 2, UniProt P0DTD1) for the following compound: O=C1CCN(Cc2csc(Cl)c2)C(=O)N1c1cncc2ccccc12
Response: -0.07

Prompt: Lab request: please report log10 IC50 under test system SARS-CoV-2 M^Pro (Severe acute respiratory syndrome coronavirus 2, UniProt P0DTD1) for O=c1[nH]c(-c2cccc(Cl)c2)c(-n2nnc3ccccc32)c(=O)n1-c1cncc2ccccc12
Response: -0.52

Prompt: Given the entry O=C1CCN(Cc2cc(Cl)cs2)C(=O)N1Cc1ccc[nH]c1=O , what log10 IC50 was observed with SARS-CoV-2 M^Pro (Severe acute respiratory syndrome coronavirus 2, UniProt P0DTD1)?
Response: 0.66

Prompt: # get_value(readout= log10 IC50, system= SARS-CoV-2 M^Pro (Severe acute respiratory syndrome coronavirus 2, UniProt P0DTD1)) for O=C1CCN(Cc2csc(Cl)c2)C(=O)N1Cc1ccc[nH]c1=O
Response: 0.18

Prompt: # query: log10 IC50 | item O=C1CCN(Cc2cccc(Cl)c2)C(=O)N1Cc1ccc[nH]c1=O | system: SARS-CoV-2 M^Pro (Severe acute respiratory syndrome coronavirus 2, UniProt P0DTD1)
Response: 0.93

Prompt: // fetch SARS-CoV-2 M^Pro (Severe acute respiratory syndrome coronavirus 2, UniProt P0DTD1) log10 IC50 for O=c1cc(-c2cccc(Cl)c2)[nH]c(=O)n1-c1cncc2ccccc12
Response: 0.81

Prompt: Short answer please: log10 IC50, SARS-CoV-2 M^Pro (Severe acute respiratory syndrome coronavirus 2, UniProt P0DTD1), entry O=C1CCN(Cc2cccc(F)c2)C(=O)N1c1cncc2ccccc12
Response: -0.10

Prompt: Return log10 IC50 measured with SARS-CoV-2 M^Pro (Severe acute respiratory syndrome coronavirus 2, UniProt P0DTD1) given this compound: O=C1CCN(Cc2cccc(Cl)c2)C(=O)N1c1cncc2ccccc12
Response: -0.18

---

# protocol summary: in vivo
# assay context: male, CD-1, mouse, po, 50 mg/kg, AUClast
assay readout: AUC(0-t) (ng·h/mL)
Give your result in ng·h/mL as a bare value.

Prompt: Fill in: AUC(0-t) of C#CCn1c(-c2ccc(Cl)c(Cl)c2)c(-n2nnc3cc(F)c(F)cc32)c(=O)n(-c2cncc3ccccc23)c1=O is ___
Response: 56500

Prompt: Requested read-out: AUC(0-t). Entry: C#CCn1c(C)c(-n2nnc3cc(F)c(F)cc32)c(=O)n(-c2cncc3ccccc23)c1=O
Response: 94700

Prompt: Which value of AUC(0-t) has been reported for C#CCn1c(C)c(-n2nnc3ccccc32)c(=O)n(-c2cncc3ccccc23)c1=O in the records?
Response: 49900

Prompt: Need AUC(0-t) of O=c1[nH]c(-c2ccc(Cl)c(Cl)c2)c(-n2nnc3cc(F)c(F)cc32)c(=O)n1-c1cncc2ccccc12 , thanks.
Response: 11500

---

Kindly supply the reported EC50 values for the records listed here.
# System: SARS-CoV-2 XBB.1.5 in A549-ACE2^h
# protocol summary: microbe, parasite or virus in culture
# Assay type: cell-based
# assay context: Severe acute respiratory syndrome coronavirus 2, read-out: Viral replication in A549-ACE2^h EC50: XBB.1.5
Give the number; µM is assumed, so skip it.

Prompt: What measured EC50 is associated with C#CCn1c(C)c(-n2nnc3ccccc32)c(=O)n(-c2cncc3ccccc23)c1=O on SARS-CoV-2 XBB.1.5 in A549-ACE2^h?
Response: 0.03

Prompt: Which measured EC50 belongs to CC(C)(C)[C@H](NC(=O)C(F)(F)F)C(=O)N1C[C@H]2[C@@H]([C@H]1C(=O)N[C@H](C#N)C[C@@H]1CCNC1=O)C2(C)C [nirmatrelvir, reference compound] , tested on SARS-CoV-2 XBB.1.5 in A549-ACE2^h?
Response: 0.021

Prompt: Return EC50 measured with SARS-CoV-2 XBB.1.5 in A549-ACE2^h given this compound: O=c1[nH]c(-c2ccc(Cl)c(Cl)c2)c(-n2nnc3cc(F)c(F)cc32)c(=O)n1-c1cncc2ccccc12
Response: 0.15

Prompt: Short answer please: EC50, SARS-CoV-2 XBB.1.5 in A549-ACE2^h, entry C#CCn1c(-c2ccc(Cl)c(Cl)c2)c(-n2nnc3cc(F)c(F)cc32)c(=O)n(-c2cncc3ccccc23)c1=O
Response: 0.0003

---

# protocol summary: in vivo
# assay context: male, CD-1, mouse, po, 50 mg/kg, TMax
assay readout: Tmax (h)
Reply numerically in h, unit not repeated.

Prompt: Any idea what Tmax was measured for C#CCn1c(C)c(-n2nnc3ccccc32)c(=O)n(-c2cncc3ccccc23)c1=O [AVI-4516] ?
Response: 1

Prompt: Need Tmax of C#CCn1c(C)c(-n2nnc3cc(F)c(F)cc32)c(=O)n(-c2cncc3ccccc23)c1=O [AVI-4773] , thanks.
Response: 0.5

Prompt: Name the recorded Tmax for C#CCn1c(-c2ccc(Cl)c(Cl)c2)c(-n2nnc3cc(F)c(F)cc32)c(=O)n(-c2cncc3ccccc23)c1=O [AVI-4694] .
Response: 4

Prompt: Please look up its Tmax: O=c1[nH]c(-c2ccc(Cl)c(Cl)c2)c(-n2nnc3cc(F)c(F)cc32)c(=O)n1-c1cncc2ccccc12 [AVI-4673]
Response: 4

---

# System: SARS-CoV Urbani
# protocol summary: microbe, parasite or virus in culture
# Assay type: cell-based
# assay context: Severe acute respiratory syndrome coronavirus, Vero C1008
Answer each item with its documented pEC50.
# pEC50 is unitless: minus log10 of the molar concentration; print number only

Prompt: Short answer please: pEC50, SARS-CoV Urbani, entry C#CCn1c(C)c(-n2nnc3ccccc32)c(=O)n(-c2cncc3ccccc23)c1=O
Response: 6.24

Prompt: Find pEC50 (SARS-CoV Urbani) for the entry C#CCn1c(-c2ccc(Cl)c(Cl)c2)c(-n2nnc3cc(F)c(F)cc32)c(=O)n(-c2cncc3ccccc23)c1=O
Response: 7.28

Prompt: Please tell me: pEC50 of CCC(CC)COC(=O)[C@H](C)N[P@](=O)(OC[C@H]1O[C@@](C#N)(c2ccc3c(N)ncnn23)[C@H](O)[C@@H]1O)Oc1ccccc1 [remdesivir, reference compound] , system SARS-CoV Urbani?
Response: 6.92

---

# System: SARS-CoV-2 WA.1 replicon in Vero ACE2 TMPRSS2
# protocol summary: microbe, parasite or virus in culture
# Assay type: cell-based
# assay context: Severe acute respiratory syndrome coronavirus 2, Vero, read-out: Replicon replication in Vero ACE2 TMPRSS2 EC50: WA.1
assay readout: EC50

Prompt: Lab note: need EC50 for C#CCn1c(-c2cccc(Cl)c2)c(-n2nnc3ccccc32)c(=O)n(-c2cncc3ccccc23)c1=O [AVI-4692] on SARS-CoV-2 WA.1 replicon in Vero ACE2 TMPRSS2, anyone have it?
Response: 0.026 µM

Prompt: Find EC50 (SARS-CoV-2 WA.1 replicon in Vero ACE2 TMPRSS2) for the entry C#CCn1c(-c2ccc(Cl)c(Cl)c2)c(-n2nnc3cc(F)c(F)cc32)c(=O)n(-c2cncc3ccccc23)c1=O [AVI-4694]
Response: 0.013 µM

Prompt: Please tell me: EC50 of O=c1[nH]c(-c2ccc(Cl)c(Cl)c2)c(-n2nnc3cc(F)c(F)cc32)c(=O)n1-c1cncc2ccccc12 [AVI-4673] , system SARS-CoV-2 WA.1 replicon in Vero ACE2 TMPRSS2?
Response: 0.94 µM

Prompt: What measured EC50 is associated with C#CCn1c(C)c(-n2nnc3ccccc32)c(=O)n(-c2cncc3ccccc23)c1=O [AVI-4516] on SARS-CoV-2 WA.1 replicon in Vero ACE2 TMPRSS2?
Response: 0.16 µM

Prompt: Param readout= EC50; system= SARS-CoV-2 WA.1 replicon in Vero ACE2 TMPRSS2; entry= C#CCn1c(C)c(-n2nnc3cc(F)c(F)cc32)c(=O)n(-c2cncc3ccccc23)c1=O [AVI-4773] ; returns value.
Response: 0.06 µM

Prompt: Hello, I am looking for reported EC50 with SARS-CoV-2 WA.1 replicon in Vero ACE2 TMPRSS2 for CC(C)(C)[C@H](NC(=O)C(F)(F)F)C(=O)N1C[C@H]2[C@@H]([C@H]1C(=O)N[C@H](C#N)C[C@@H]1CCNC1=O)C2(C)C [nirmatrelvir, reference compound] . Could you help?
Response: 0.62 µM
